target: spFolD (Streptococcus pneumoniae serotype 4, UniProt Q97RI9); construct: His-tag (TEV-cleavable, vector pHis-TEV); made in house; host or cells: E. coli BL21 (DE3); assay: spFolD cyclohydrolase (CYH) enzyme assay; format: biochemical, S. pneumoniae; details: 5 nM enzyme; read-out: IC50, carolacton inhibition on CYH activity
Sequence (Q97RI9 whole entry): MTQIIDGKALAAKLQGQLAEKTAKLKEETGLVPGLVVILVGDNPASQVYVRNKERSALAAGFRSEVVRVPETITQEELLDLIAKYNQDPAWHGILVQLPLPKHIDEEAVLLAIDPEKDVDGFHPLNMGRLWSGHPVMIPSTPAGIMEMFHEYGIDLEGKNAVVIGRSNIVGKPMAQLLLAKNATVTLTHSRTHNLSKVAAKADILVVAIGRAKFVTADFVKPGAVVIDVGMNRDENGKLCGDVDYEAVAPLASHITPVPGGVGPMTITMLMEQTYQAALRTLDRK
quantity: IC50

> print(dat)
                                   compound   result
1  CO[C@H](CC(=O)O)[C@@H](C)C(=O)[C@H](C)/C=C(\C)[C@H]1OC(=O)[C@H](O)[C@H](O)/C=C/[C@H](C)CCC[C@@H]1C [carolacton]  38.1 nM

----------
molecular target: hsMTHFD1_DC (Homo sapiens); construct: hsMTHFD1 DC301; His-tag (TEV-cleavable, vector pHis-TEV); made in house; host or cells: E. coli BL21 (DE3); test: hsMTHFD1_DC dehydrogenase (DH) enzyme assay; type: biochemical; conditions: hsMTHFD1 DC301; 10 nM enzyme; read-out: IC50, carolacton inhibition on DH activity
Sequence (P11586 2-291 limits assumed): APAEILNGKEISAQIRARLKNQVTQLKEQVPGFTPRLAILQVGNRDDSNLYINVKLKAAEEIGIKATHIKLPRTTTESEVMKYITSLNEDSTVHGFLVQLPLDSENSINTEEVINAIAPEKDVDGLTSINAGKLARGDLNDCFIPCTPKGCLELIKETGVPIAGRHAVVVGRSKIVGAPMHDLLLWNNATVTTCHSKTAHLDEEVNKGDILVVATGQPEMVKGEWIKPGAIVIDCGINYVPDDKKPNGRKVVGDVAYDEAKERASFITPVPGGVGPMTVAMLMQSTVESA
pIC50: −log10 of the molar value.
quantity: pIC50

> print(dat)
                                   compound         experimental.system  quantitative.result
1  CO[C@H](CC(=O)O)[C@@H](C)C(=O)[C@H](C)/C=C(\C)[C@H]1OC(=O)[C@H](O)[C@H](O)/C=C/[C@H](C)CCC[C@@H]1C  hsMTHFD1_DC (Homo sapiens)                 7.42

----------
molecular target: spFolD (Streptococcus pneumoniae serotype 4, UniProt Q97RI9); construct: His-tag (TEV-cleavable, vector pHis-TEV); made in house; host or cells: E. coli BL21 (DE3); assay: spFolD dehydrogenase (DH) enzyme assay; format: biochemical, S. pneumoniae; conditions: vs 5,10-CH2-THF; read-out: Ki (5,10-CH2-THF), carolacton inhibition on DH activity
pKi: −log10 of the molar value.
quantity: pKi

> print(dat)
                                   compound  quantitative.result
1  CO[C@H](CC(=O)O)[C@@H](C)C(=O)[C@H](C)/C=C(\C)[C@H]1OC(=O)[C@H](O)[C@H](O)/C=C/[C@H](C)CCC[C@@H]1C                 7.37

src = paper PMC5688156
